The reported measurements were obtained from paper PMC9115112.

# assayed target: human A2BAR (Homo sapiens, UniProt P29275)
# Sequence (P29275 whole entry): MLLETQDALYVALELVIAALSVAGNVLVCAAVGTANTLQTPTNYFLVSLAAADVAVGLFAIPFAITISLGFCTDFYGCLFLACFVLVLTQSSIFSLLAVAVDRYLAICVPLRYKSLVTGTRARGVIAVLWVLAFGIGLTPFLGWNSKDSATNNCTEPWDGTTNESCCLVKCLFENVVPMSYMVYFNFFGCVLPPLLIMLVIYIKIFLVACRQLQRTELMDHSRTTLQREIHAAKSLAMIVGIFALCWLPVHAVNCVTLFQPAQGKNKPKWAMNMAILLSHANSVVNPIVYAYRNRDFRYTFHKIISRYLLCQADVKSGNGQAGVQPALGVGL
quantity: pKi
Please keep in mind that pKi is minus log10 of the molar concentration; only the number is needed.

Form entry - test system: human A2BAR (Homo sapiens, UniProt P29275); read-out: pKi; compound: CC1=C(C(=O)OC(C)C)C(c2ccco2)n2c(nc3ccccc32)N1Cc1ccccc1F (centres unmarked) [ISAM-R56A]
8.82

* * *

# assayed target: hA2B (A2BAR) (Homo sapiens)
# Construct: expressed in transfected cells; host or cells: HEK-293
# Sequence (P29275 whole entry): as above
# protocol summary: cAMP assay, NECA-stimulated, HEK-293 cells with transfected A2BAR
# Type: cell-based
# conditions used: n=3, read-out: Kb hA2B (cAMP production)
The threshold is 0.03 µM. Values of Kb beneath it are tagged yes; values meeting or exceeding it are tagged no.

> print(dat)
                                   molecule  group
1  CC1=C(C(=O)OC(C)C)C(c2ccco2)n2c(nc3ccccc32)N1 (centres unmarked) [ISAM-140]    yes
2  CC1=C(C(=O)OC(C)C)C(c2ccco2)NC(=S)N1 (centres unmarked) [SY1AF-30]    yes
3  CCOC(=O)C1=C(C)NC(=O)NC1c1ccsc1 (centres unmarked) [SY1AF-80]    yes
4  CC1=C(C(=O)OC(C)C)C(c2ccco2)n2c(nc3ccccc32)N1Cc1ccccc1F (centres unmarked) [ISAM-R56A]    yes

// switching to the query molecule
Bench note: check whether CC1=C(C(=O)OC(C)C)C(c2ccco2)NC(=NC#N)N1 (centres unmarked) [SY1KO-24] shows Kb below 0.03 µM
no
